target: porcine pepsin (Sus scrofa, UniProt P00791); construct: purchased Sigma-Aldrich (Madrid, Spain); experiment: In vitro simulated gastric digestion (G60); type: in vitro ADME; settings: simulated gastric fluid 35 mM NaCl pH 2, porcine pepsin enzyme/substrate 1:20 w/w, 37 °C, 60 min; UHPLC-HRMS extracted ion chromatogram, 20 ppm window, semi-quantified; triplicate aliquots
Sequence (P00791 60-385): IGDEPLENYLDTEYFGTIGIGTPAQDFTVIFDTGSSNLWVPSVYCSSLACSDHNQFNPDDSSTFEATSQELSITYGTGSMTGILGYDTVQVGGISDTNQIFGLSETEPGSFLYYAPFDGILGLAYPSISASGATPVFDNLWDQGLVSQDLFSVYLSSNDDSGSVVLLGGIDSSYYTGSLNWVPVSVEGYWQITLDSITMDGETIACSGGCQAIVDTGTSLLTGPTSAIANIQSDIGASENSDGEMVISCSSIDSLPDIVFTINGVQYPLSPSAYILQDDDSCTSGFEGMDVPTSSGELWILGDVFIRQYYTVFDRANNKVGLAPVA
Ends that are not written are not given here.
// Area G60 (chromatographic peak area) lookup, one value per entry

A selection of reference data follows.
substance | Area G60 (chromatographic peak area)
QHNCQE [QHNCQE] | 288,536
AVFQHNCQE | 5,236,186
AVFQHN [AVFQHN] | 685,482

// below: Area G60 (chromatographic peak area) requested for another substance
Noted for AVFQHNC [AVFQHNC] : its Area G60 (chromatographic peak area) reads 220,051

The origin of these recorded values is paper PMC7408493.
